Values from paper PMC9482650

List of pKd values.
Target: PARD3_3, Q8TEW0
Sequence (Q8TEW0 582-685): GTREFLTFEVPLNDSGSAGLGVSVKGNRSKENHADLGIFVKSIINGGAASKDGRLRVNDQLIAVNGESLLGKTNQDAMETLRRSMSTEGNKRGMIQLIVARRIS
Experiment: holdup assay
Design: key: below the threshold = too weak to quantify, mostly under pKd 3.1 to 4
Conditions: plain residues with an end cap or a label only (N-terminal biotin on a linker: ado-ado)
Reply: number alone, nothing else.

I would be grateful if you could share the reported pKd for LKVPPEERLI [CRB2, Q5IJ48] .
3.85

Data request, read-out pKd, for TACCHSETVV [TGFA, P01135]
3.85

Need pKd, item QMNQTLPVQV [EPHB3, P54753]
3.51

// returns reported pKd for input CLREWCDAFL [BANF1, O75531]
4.43

Reported pKd, binder PEYLGLDVPV [ERBB2, P04626] : ____
3.52

Item under review: GQEEQVTTRL [TRPC5, Q9UL62] . Reported pKd?
3.5

Quick one: pKd for HSGYRLNDYV [CLDN14, O95500] ?
3.83

Suppose we examine the binder FNSYSLTGYV [CLDN2, P57739] ; what pKd value has been reported?
4.04

Which pKd is reported for this binder? IPLDGETEEL [MYOZ1, Q9NP98]
3.97

Query: pKd; subject: TSQESEDTYL [TBC1D10A, Q9BXI6]
4.63

Give its pKd value. Item: RHGSCVETSL [TMEM151B, Q8IW70]
3.59

Requested field: pKd. Item: DDPSTAETVL [ABCA7, Q8IZY2]
4.56

State the recorded pKd for this entry: QGLAERISVL [PRKD2, Q9BZL6]
3.68
